Assay: JHH-DIPG-1 glioma cell viability, MIPE5.0 library, CellTiter-Glo luminescence, qHTS (AID 1347067);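 also: cells exposed to compound for 48 hours before readout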
Conditions: JHH-DIPG-1 glioma viability, CellTiter-Glo ATP luminescence
Inconclusive results are not listed. Activity calls are given as the source filed them. The limit is not given here; nearly all actives have AC50 up to about 26 µM.
READOUT: AC50

## Input Suppose we examine the compound "CCOC(=O)/C=C/[C@H](C[C@@H]1CCNC1=O)NC(=O)[C@@H](CC(=O)[C@@H](NC(=O)c1cc(C)on1)C(C)C)Cc1ccc(F)cc1" ; what AC50 value has been reported?
## Output inactive

## Input Suppose we examine the compound "C=CC(=O)Nc1cccc(Nc2nc(Nc3ccc(OCCOC)cc3)ncc2F)c1" ; what AC50 value has been reported?
## Output 3.72 µM (active)

## Input Suppose we examine the compound "Cc1ccc(C(=O)N(CCCN)[C@@H](c2nc3cc(Cl)ccc3c(=O)n2Cc2ccccc2)C(C)C)cc1" ; what AC50 value has been reported?
## Output 9.34 µM (active)

## Input Suppose we examine the compound "COC(=O)N1CC2(CC2)C[C@H](C(=O)NO)[C@H]1C(=O)N1CCN(c2ccccc2)CC1" ; what AC50 value has been reported?
## Output inactive

###

Test: drug combination growth inhibition, ovarian cancer – cell-based, oncology-focused library, rucaparib conditional, profiling panel (AID 1508598)
Details: patient-derived ovarian cancer cells, CellTiter-Glo viability, 144 h; at 5 µM; OCI-P5x cells; without rucaparib
Activity calls are given as the source filed them.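 Rule for the calls: active = normalized viability below 100% at a tested concentration; inactive = the rest.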
Pick one: active, inactive

Completed entries (count: 5):
## Input // outcome(item) with item = "Cn1cnc2c(F)c(Nc3ccc(Br)cc3Cl)c(C(=O)NOCCO)cc21"
## Output active

## Input // outcome(item) with item = "CC(/C=C/C(=O)NO)=C\[C@@H](C)C(=O)c1ccc(N(C)C)cc1"
## Output active

## Input // outcome(item) with item = O=C(O)CCC1CCC(c2cc(F)ccc2F)(S(=O)(=O)c2ccc(Cl)cc2)CC1 (centres undefined)
## Output active

## Input // outcome(item) with item = "CN(NC(=O)CC(=O)NN(C)C(=S)c1ccccc1)C(=S)c1ccccc1"
## Output active

## Input // outcome(item) with item = "CCCCCCCCc1ccc(CCC(N)(CO)CO)cc1"
## Output active

Continue with the next compound.
## Input // outcome(item) with item = "Cc1cn(-c2cc(NC(=O)c3ccc(C)c(Nc4nccc(-c5cccnc5)n4)c3)cc(C(F)(F)F)c2)cn1"
## Output active

###

Assay: viability loss in pontine glioma line – cell-based, SU-DIPG-XIII, MIPE5.0, CellTiter-Glo, qHTS, dose response (AID 1347064);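 as to AC50: cells exposed to compound for 48 hours before the viability read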
Details: CellTiter-Glo ATP luminescence
Records with an inconclusive call do not appear. The source made the active and inactive calls. No cut-off is given here; in the data, nearly all actives have AC50 up to about 23 µM.
Pick one: 1 (yes) (active), 0 (no) (inactive)

## Input // outcome(item) with item = "COc1nccc(-c2c(-c3ccc(F)cc3)ncn2C2CCNCC2)n1"
## Output 0 (no)

## Input // outcome(item) with item = "O=C(NO)c1ccc(C2=Nc3ccccc3Oc3ccccc32)cc1"
## Output 1 (yes)

## Input // outcome(item) with item = "C=CC(=O)Nc1ccc2ncnc(Nc3cccc(Br)c3)c2c1"
## Output 1 (yes)

## Input // outcome(item) with item = Cc1noc(-c2ccc(CSCCC(=O)O)cc2)c1NC(=O)OC(C)c1ccccc1Cl (stereo unspecified)
## Output 0 (no)

## Input // outcome(item) with item = "COc1cc(C(=O)O)ccc1NC(=O)[C@@H]1N[C@@H](CC(C)(C)C)[C@](C#N)(c2ccc(Cl)cc2F)[C@H]1c1cccc(Cl)c1F"
## Output 1 (yes)

## Input // outcome(item) with item = "O=C(NO)c1cnc(NC2(c3ccccc3)CC2)nc1"
## Output 1 (yes)

## Input // outcome(item) with item = O=C1NC(O)CCN1[C@@H]1O[C@H](CO)[C@@H](O)[C@H]1O (stereo partly specified)
## Output 0 (no)

## Input // outcome(item) with item = "Cn1c(CNc2ccc(C(=N)N)cc2)nc2cc(C(=O)N(CCC(=O)O)c3ccccn3)ccc21"
## Output 0 (no)

New cases:
## Input // outcome(item) with item = "Cc1cc(Nc2nc(N[C@@H](C)c3ncc(F)cn3)ncc2Cl)n[nH]1"
## Output 1 (yes)

## Input // outcome(item) with item = "Cc1ccc(C(=O)Nc2cccc(C(F)(F)F)c2)cc1Nc1nc(-c2cccnc2)nc2c1cnn2C"
## Output 1 (yes)

## Input // outcome(item) with item = "COc1ccc(S(=O)(=O)Nc2cc(-c3c(O)ccc4ccccc34)c(O)c3ccccc23)cc1"
## Output 1 (yes)

## Input // outcome(item) with item = "CC[C@H](NC(=O)[C@H](C)NC)C(=O)N1C[C@@H](O)C[C@H]1Cc1c(-c2[nH]c3cc(F)ccc3c2C[C@@H]2C[C@H](O)CN2C(=O)[C@H](CC)NC(=O)[C@H](C)NC)[nH]c2cc(F)ccc12"
## Output 0 (no)

## Input // outcome(item) with item = "Nc1cc(C(F)(F)F)c(-c2cc(N3CCOCC3)nc(N3CCOCC3)n2)cn1"
## Output 1 (yes)

## Input // outcome(item) with item = "Cc1c(C(=O)N2CCOc3ccc(-c4ccc(N)nc4)cc3C2)ccc(S(C)(=O)=O)c1F"
## Output 1 (yes)

## Input // outcome(item) with item = "COc1cc(-c2cn(C)c(=O)c3cnccc23)cc(OC)c1CN(C)C"
## Output 0 (no)

## Input // outcome(item) with item = "COc1cc2ncnc(Nc3cccc(Cl)c3F)c2cc1OC(=O)N1CCN(C)C[C@H]1C"
## Output 0 (no)

## Input // outcome(item) with item = "O=S(=O)(O)CCSSCCS(=O)(=O)O"
## Output 0 (no)

## Input // outcome(item) with item = "CS(=O)(=O)N1CCc2c(-c3cnc(N)nc3)nc(N3CCOCC3)nc21"
## Output 1 (yes)

## Input // outcome(item) with item = "Cc1ccc(-c2nc(N)nc3c2nnn3Cc2cccc(CO[C@H]3CCOC3)n2)o1"
## Output 0 (no)

## Input // outcome(item) with item = "Cc1c(F)cc(C(=O)NC2CC2)cc1-c1ccc(C(=O)NCC(C)(C)C)cn1"
## Output 0 (no)

## Input // outcome(item) with item = COc1cc2c(cc1OC)C1CC(=O)C(CC(C)C)CN1CC2 (stereo unspecified)
## Output 0 (no)

## Input // outcome(item) with item = "COC(C)(C)CCn1nc(Nc2c(C)cccc2C)c2cnc(Nc3ccc(OCCN4CCCC4)c(F)c3)nc21"
## Output 1 (yes)

###

Assay: viability loss in pontine glioma line – cell-based, SU-DIPG-XXV, MIPE5.0, CellTiter-Glo, qHTS, dose response (AID 1347065);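 also: cells exposed to compound for 48 hours before ATP readout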
Details: CellTiter-Glo ATP luminescence
Results filed as inconclusive are left out. Active and inactive are the calls of the source. Cut-off not given; nearly all actives show AC50 up to about 26 µM.
READOUT: AC50

## Input Suppose we examine the compound "Cc1nc(NC(=O)N2CCC[C@H]2C(N)=O)sc1-c1ccnc(C(C)(C)C(F)(F)F)c1" ; what AC50 value has been reported?
## Output 3.32 µM (active)

## Input Suppose we examine the compound "O=C1NC(=O)C(c2cnc3ccccn23)=C1c1cn2c3c(cc(F)cc13)CN(C(=O)N1CCCCC1)CC2" ; what AC50 value has been reported?
## Output 18.6 µM (active)

## Input Suppose we examine the compound "Cc1cccc(-c2[nH]c(C(C)(C)C)nc2-c2ccc3c(c2)OCO3)n1" ; what AC50 value has been reported?
## Output 2.95 µM (active)

## Input Suppose we examine the compound "CCNC(=O)C#Cc1ccc2c(C(=Nc3ccc(CN(C)C)cc3)c3ccccc3)c(O)[nH]c2c1" ; what AC50 value has been reported?
## Output 0.0723 µM (active)

New cases:
## Input Suppose we examine the compound CCOC(=O)C1=C(C)NC2=C(C(=O)CC(C)(C)C2)C1c1ccc(-c2ccccc2)cc1 (stereo not drawn) ; what AC50 value has been reported?
## Output 23.5 µM (active)

## Input Suppose we examine the compound "CN1CCN(c2ccc3nc(-c4cc(C(C)(C)C)c(OCCCC(=O)NCCCN=[N+]=[N-])c(C(C)(C)C)c4)[nH]c3c2)CC1" ; what AC50 value has been reported?
## Output 7.42 µM (active)

###

Assay: viability loss with induced miR-34 in A549 – imaging, A549 dox-inducible miR-34, nuclei and caspase counts, primary screen (AID 1347080)
Conditions: A549 miR-34 inducible, Hoechst nuclei count, 48 h; stronger effect = lower value; cell number ratio, induced over uninduced
Catalogue of fold change readings, one per entry.
Keep it simple and answer with nothing but the number.

Some compounds with known fold change results, for comparison:
## Input Suppose we examine the compound "CCCCC[C@H](O)/C=C/[C@H]1[C@H](O)CC(=O)[C@@H]1C/C=C\CCCC(=O)Oc1ccc(NC(C)=O)cc1" ; what fold change value has been reported?
## Output 0.993

## Input Suppose we examine the compound "CCCCCCCC/C=C\CCCCCCCC(=O)N[C@@H](CO)C(=O)O" ; what fold change value has been reported?
## Output 1.01

## Input Suppose we examine the compound "Cc1ccc(C(=O)Nc2cccc(C(F)(F)F)c2)cc1Nc1nc(-c2cccnc2)nc2c1cnn2C" ; what fold change value has been reported?
## Output 1.02

## Input Suppose we examine the compound "Nc1nc2c(nc(Br)n2[C@@H]2O[C@@H]3COP(=O)(O)O[C@H]3[C@H]2O)c(=O)[nH]1" ; what fold change value has been reported?
## Output 0.972

## Input Suppose we examine the compound "O=C(O)CCCCCC[C@@H]1[C@@H](CC[C@@H](O)CCc2cccc(C(F)(F)F)c2)[C@H](O)C[C@@H]1O" ; what fold change value has been reported?
## Output 1.13

New cases:
## Input Suppose we examine the compound "Fc1cc(-c2cccc3ncc(-c4cnn(C5CCNCC5)c4)nc23)cc(F)c1CN1CCOCC1" ; what fold change value has been reported?
## Output 0.713
